reported metric: pEC50
The scale used: pEC50 is minus the common logarithm of the concentration in molar units.

-- ask Look up and report measured pEC50 (Estrogen receptor (Homo sapiens, UniProt P03372)) for the following compound: Oc1cccc(-c2cc3ccc(O)cc3s2)c1
-- reply 6.57

-- ask Look up and report measured pEC50 (Estrogen receptor (Homo sapiens, UniProt P03372)) for the following compound: Cc1cc(O)ccc1-c1cc2ccc(O)cc2s1
-- reply 7.32

-- ask Look up and report measured pEC50 (Estrogen receptor (Homo sapiens, UniProt P03372)) for the following compound: CCc1cc(-c2cc3ccc(O)cc3s2)ccc1O
-- reply 6.72

-- ask Look up and report measured pEC50 (Estrogen receptor (Homo sapiens, UniProt P03372)) for the following compound: Cc1ccc(-c2cc3ccc(O)cc3s2)cc1
-- reply 6.75
